The reported numbers originate from paper PMC8597046.

test: Nonlinear mixed effect (NLME) compartmental modeling of merged IV and oral serum concentrations; settings: oral dosing
Answer each item with its documented AUCVO/dose.
Give just the number in μmol×h/L per μmol/kg BW; leave the unit off.

Looking up O=C(O)C(F)(F)C(F)(F)C(F)(F)C(F)(F)C(F)(F)C(F)(F)C(F)(F)F , I found its AUCVO/dose recorded as 133

Looking up Cl[C@H]1[C@H](Cl)[C@@H](Cl)[C@H](Cl)[C@@H](Cl)[C@@H]1Cl , I found its AUCVO/dose recorded as 12.5

Looking up Brc1ccc(Oc2ccc(Br)cc2Br)c(Br)c1 , I found its AUCVO/dose recorded as 2.97

----------
test: Nonlinear mixed effect (NLME) compartmental modeling of merged IV and oral serum concentrations; details: female, New Zealand white, rabbit, in vivo, po, Bioavailability, population secondary parameter, mean, as fraction
parameter.measured: bioavailability (%)
Give just the number in %; leave the unit off.

Looking up Cl[C@H]1[C@H](Cl)[C@@H](Cl)[C@H](Cl)[C@@H](Cl)[C@@H]1Cl [β-HCH, β-hexachlorocyclohexane] , I found its bioavailability recorded as 88

Looking up O=C(O)C(F)(F)C(F)(F)C(F)(F)C(F)(F)C(F)(F)C(F)(F)C(F)(F)F [PFOA, perfluorooctanoic acid] , I found its bioavailability recorded as 100

Looking up Brc1ccc(Oc2ccc(Br)cc2Br)c(Br)c1 [BDE-47, 2,2′,4,4′-tetrabromodiphenyl ether] , I found its bioavailability recorded as 96

----------
Answer each item with its documented concentration at 168 h.
assay: TK assay, intravenous mixture dosing: serum concentrations and noncompartmental analysis (sparse data); details: female, New Zealand white, rabbit, in vivo, iv, Serum concentration, rabbit 7, 168.00 h
Give just the number in nM; leave the unit off.

Looking up Cl[C@H]1[C@H](Cl)[C@@H](Cl)[C@H](Cl)[C@@H](Cl)[C@@H]1Cl [β-HCH, β-hexachlorocyclohexane] , I found its concentration at 168 h recorded as 20

Looking up Brc1ccc(Oc2ccc(Br)cc2Br)c(Br)c1 [BDE-47, 2,2′,4,4′-tetrabromodiphenyl ether] , I found its concentration at 168 h recorded as 31

Looking up O=C(O)C(F)(F)C(F)(F)C(F)(F)C(F)(F)C(F)(F)C(F)(F)C(F)(F)F [PFOA, perfluorooctanoic acid] , I found its concentration at 168 h recorded as 5.3

----------
Answer each item with its documented Daily maintenance dose.
experiment: Estimation of loading and daily maintenance doses and NLME model simulations; parameters: species or system female rabbits; details: oral, to maintain serum concentration of 1 ng/mL; daily CL×Css/F; DEHP dose for MEHP in serum
Give just the number in µg/kg; leave the unit off.

Looking up Brc1ccc(Oc2ccc(Br)cc2Br)c(Br)c1 , I found its Daily maintenance dose recorded as 8.4

Looking up CCCCC(CC)COC(=O)c1ccccc1C(=O)OCC(CC)CCCC (stereo not drawn) [DEHP, di(2-ethylhexyl)phthalate] , I found its Daily maintenance dose recorded as 13

Looking up ClC(Cl)=C(c1ccc(Cl)cc1)c1ccc(Cl)cc1 , I found its Daily maintenance dose recorded as 4.5

----------
assay: TK assay, intravenous mixture dosing: serum concentrations and noncompartmental analysis (sparse data); settings: female, New Zealand white, rabbit, in vivo, iv, Serum concentration, rabbit 1, 4.38 h
parameter.measured: concentration at 4.38 h (nM)
Give just the number in nM; leave the unit off.

Looking up O=C(O)C(F)(F)C(F)(F)C(F)(F)C(F)(F)C(F)(F)C(F)(F)C(F)(F)F , I found its concentration at 4.38 h recorded as 1070
